experiment: Plasma and tissue pharmacokinetics after subcutaneous administration; format: in vivo; details: male, CD-1, mouse, plasma, sc
assay-readout: Cmax (ng/mL)

structure_as_smiles=COc1cc(C(=O)OCCCN2CCCN(CCCOC(=O)c3cc(OC)c(OC)c(OC)c3)CC2)cc(OC)c1OC assay_readout=Cmax observed=409

The measurements presented in this section are drawn from paper PMC11685430.
